Each entry below carries its recorded viability, T/C.
Test system: 242566-281-R-J2-PDC complex spheroid viability;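 further: spheroids exposed to compound for 7 days before readout; 100% = DMSO vehicle control wells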
Assay: Anticancer human tumor 242566-281-R-J2-PDC patient-derived pancreatic carcinoma cell line growth inhibition [RAS]
Conditions: second compound 0.1 µM; first compound 0.00316 µM; stronger effect = lower value
REPORTED_METRIC: viability, T/C (%)

COMPOUND: O=C(c1ccc(F)c(F)c1Nc1ccc(I)cc1F)N1CC(O)([C@@H]2CCCCN2)C1 + C#Cc1c(F)ccc2cc(O)cc(-c3ncc4c(N5CC6CCC(C5)N6)nc(OCC56CCCN5CC(F)C6)nc4c3F)c12
EXPERIMENTAL_VALUE: 76.1
//
COMPOUND: Nc1ccn(C2OC(CO)C(O)C2(F)F)c(=O)n1 (stereo not drawn) + C#Cc1c(F)ccc2cc(O)cc(-c3ncc4c(N5CC6CCC(C5)N6)nc(OCC56CCCN5CC(F)C6)nc4c3F)c12
EXPERIMENTAL_VALUE: 75.7
//
COMPOUND: CC(C)n1nc(-c2ccc3oc(N)nc3c2)c2c(N)ncnc21 + C#Cc1c(F)ccc2cc(O)cc(-c3ncc4c(N5CC6CCC(C5)N6)nc(OCC56CCCN5CC(F)C6)nc4c3F)c12
EXPERIMENTAL_VALUE: 70.3
